- System: human prostate cell LNCaP
- Protocol Notes: Human prostate cell LNCaP transplanted tumor in nude mice
- Type: in vivo, BALB/C nude mice
- Settings: 200 mg/kg ip × 14
Assign True to entries whose RTV (d 18) meets or exceeds 4; assign False to the rest.

Sample answers from the record:
INSERT INTO measurements (molecule, assigned_category) VALUES
  ('COc1ccc(/C=C(/C(=O)O)c2cc(OC)c(OC)c(OC)c2)cc1O [Compound 6]', 'True'),
  ('COc1cc(/C(=C\c2cc(O)c(OC)c(F)c2)C(=O)O)cc(OC)c1OC [Compound 8]', 'True'),
  ('COc1cc(/C=C(/C(=O)[O-])c2cc(OC)c(OC)c(OC)c2)cc(OC)c1F.[K+] [Compound 10]', 'True');

Exam item: Tell me whether RTV (d 18) is at least 4 here: COc1ccc(/C=C(/C(=O)O)c2cc(OC)c(OC)c(OC)c2)c(O)c1O [Compound 1]
Marked response: True

Exam item: I'd appreciate it if you could say whether COc1cc(/C=C(/C(=O)O)c2cc(OC)c(OC)c(OC)c2)cc(OC)c1 [Compound 3] has RTV (d 18) at least equal to 4.
Marked response: True

Exam item: Could you please find out whether COc1ccc(/C=C(/C(=O)O)c2cc(OC)c(OC)c(OC)c2)cc1F [Compound 4] has RTV (d 18) that meets 4 or exceeds it?
Marked response: False

###

- Tested on: human prostate cell LNCaP
- Protocol Notes: Human prostate cell LNCaP transplanted tumor in nude mice
- Type: in vivo, BALB/C nude mice
- Settings: 200 mg/kg ip × 14
Marks after values point to notes of the source that are not given here.
A collection of molecules and their measured Tumor inhibitory rate %

See these solved cases before continuing.
INSERT INTO measurements (molecule, target_or_system, property, observed_result) VALUES
  ('COc1ccc(/C=C(/C(=O)O)c2cc(OC)c(OC)c(OC)c2)c(O)c1O [Compound 1]', 'human prostate cell LNCaP', 'Tumor inhibitory rate %', '56.27^## %'),
  ('COc1cc(/C=C(/C(=O)[O-])c2cc(OC)c(OC)c(OC)c2)cc(OC)c1F.[K+] [Compound 10]', 'human prostate cell LNCaP', 'Tumor inhibitory rate %', '62.67^# %'),
  ('COc1cc(/C=C(/C(=O)O)c2cc(OC)c(OC)c(OC)c2)cc(OC)c1 [Compound 3]', 'human prostate cell LNCaP', 'Tumor inhibitory rate %', '60.87^## %'),
  ('COc1cc(/C(=C\c2cc(O)c(OC)c(F)c2)C(=O)O)cc(OC)c1OC [Compound 8]', 'human prostate cell LNCaP', 'Tumor inhibitory rate %', '44.87^## %');

# ---- query molecule ----
Exam item: Using the record for COc1ccc(/C=C(/C(=O)O)c2cc(OC)c(OC)c(OC)c2)cc1O [Compound 6] , report its Tumor inhibitory rate %.
Marked response: 64.97^# %

###

- System: nonfusion human umbilical vein endothelial cells (HUVEC)
- Protocol Notes: TMT quantitative proteomics on nonfusion HUVEC
- Type: cell-based
- Settings: 10 μM, more than 1.5 times or less than 0.67 times vs control
Differentially expressed proteins: recorded values
Form rule: numeric answer, no unit written next to it.

Exam item: Given the compound `COc1cc(/C(=C\c2cc(O)c(OC)c(O)c2)C(=O)O)cc(OC)c1OC` , what is its reported Differentially expressed proteins?
Marked response: 317

Exam item: Reported Differentially expressed proteins, compound `COc1cc(/C=C(/C(=O)O)c2cc(OC)c(OC)c(OC)c2)ccc1O` : ____
Marked response: 289

###

- Tested on: nonfusion human umbilical vein endothelial cells (HUVEC)
- Protocol Notes: TMT quantitative proteomics on nonfusion HUVEC
- Type: cell-based
- Settings: 10 μM, number of proteins
Consider the following compounds and their measured Down-regulation readings.
Keep the answer to the number alone.

INSERT INTO results (compound, property, observed_result) VALUES
  ('COc1ccc(/C=C(/C(=O)O)c2cc(OC)c(OC)c(OC)c2)c(O)c1O [Compound 2]', 'Down-regulation', 288);

Exam item: State the recorded Down-regulation for this entry: `COc1ccc(/C=C(/C(=O)O)c2cc(OC)c(OC)c(OC)c2)c(OC)c1O`
Marked response: 314

Exam item: Entry under review: `COc1ccc(/C=C(/C(=O)O)c2cc(OC)c(OC)c(OC)c2)c(F)c1O` . Reported Down-regulation?
Marked response: 291

Exam item: Fill in: Down-regulation of `COc1ccc(/C=C(/C(=O)O)c2cc(OC)c(OC)c(OC)c2)cc1O` is ___
Marked response: 307

###

- System: human liver cancer QGY7703
- Protocol Notes: Human liver cancer QGY7703 transplanted tumor in nude mice
- Type: in vivo, BALB/C nude mice
- Parameters: key: RTV = Vt/Vo, tumor volume relative to volume at grouping (d1)
- Settings: QGY7703, 100 mg/kg iv × 14
The reader will find reported RTV (d 18) values listed item by item below.
Please give the numeric answer without any surrounding text.

Use these answered entries as a reference point.
INSERT INTO measurements (smiles_text, property, observed_result) VALUES
  ('COc1ccc(/C=C(/C(=O)O)c2cc(OC)c(OC)c(OC)c2)c(O)c1O', 'RTV (d 18)', 4.51),
  ('COc1cc(/C=C(/C(=O)O)c2cc(OC)c(OC)c(OC)c2)cc(OC)c1', 'RTV (d 18)', 4.67),
  ('COc1ccc(/C=C(/C(=O)O)c2cc(OC)c(OC)c(OC)c2)c(OC)c1O', 'RTV (d 18)', 4.86);

Exam item: Which RTV (d 18) is listed for `COc1ccc(/C=C(/C(=O)O)c2cc(OC)c(OC)c(OC)c2)cc1F` ?
Marked response: 5.11

Exam item: What does the record list as RTV (d 18) for `COc1cc(/C=C(/C(=O)[O-])c2cc(OC)c(OC)c(OC)c2)cc(OC)c1F.[K+]` ?
Marked response: 4.98

Exam item: Quick check: RTV (d 18) of `COc1ccc(/C=C(/C(=O)O)c2cc(OC)c(OC)c(OC)c2)cc1O` ?
Marked response: 3.65

Exam item: // RTV (d 18) lookup, key: `COc1cc(/C=C(/C(=O)O)c2cc(OC)c(OC)c(OC)c2)ccc1O`
Marked response: 4.63

Exam item: Quick one: RTV (d 18) of `COc1ccc(/C=C(/C(=O)O)c2cc(OC)c(OC)c(OC)c2)c(F)c1O` ?
Marked response: 4.67

###

- Tested on: human renal cell carcinoma AGHN
- Protocol Notes: Human renal cell carcinoma AGHN transplanted tumor in nude mice
- Format: in vivo, BALB/C nude mice
- Settings: 200 mg/kg ip × 14
Marks after values point to notes of the source that are not given here.
Property: Tumor inhibitory rate %

Field: example entries. Status: answers known.
INSERT INTO assay_data (molecule, target_or_system, property, observed_result) VALUES
  ('COc1cc(/C=C(/C(=O)O)c2cc(OC)c(OC)c(OC)c2)cc(OC)c1 [Compound 3]', 'human renal cell carcinoma AGHN', 'Tumor inhibitory rate %', '60.33^# %'),
  ('COc1ccc(/C=C(/C(=O)O)c2cc(OC)c(OC)c(OC)c2)c(O)c1O [Compound 1]', 'human renal cell carcinoma AGHN', 'Tumor inhibitory rate %', '54.24^## %'),
  ('COc1ccc(/C=C(/C(=O)O)c2cc(OC)c(OC)c(OC)c2)c(OC)c1O [Compound 12]', 'human renal cell carcinoma AGHN', 'Tumor inhibitory rate %', '58.48^## %');

Exam item: Tell me the measured Tumor inhibitory rate % of COc1cc(/C(=C\c2cc(O)c(OC)c(F)c2)C(=O)O)cc(OC)c1OC [Compound 8] , please.
Marked response: 54.89^## %

Exam item: Recorded Tumor inhibitory rate % for COc1ccc(/C=C(/C(=O)O)c2cc(OC)c(OC)c(OC)c2)c(F)c1O [Compound 9] , please?
Marked response: 62.87^# %

Exam item: Reported Tumor inhibitory rate % for COc1ccc(/C=C(/C(=O)O)c2cc(OC)c(OC)c(OC)c2)cc1O [Compound 6] : what is it?
Marked response: 52.64^## %

###

- Tested on: nonfusion human umbilical vein endothelial cells (HUVEC)
- Protocol Notes: TMT quantitative proteomics on nonfusion HUVEC
- Format: cell-based
- Settings: 10 μM, more than 1.5 times or less than 0.67 times vs control
Property: Differentially expressed proteins
Give your answer as a number; write no unit.

Previously resolved entries follow.
INSERT INTO assay_data (molecule, property, observed_result) VALUES
  ('CCOc1ccc(/C=C(/C(=O)O)c2cc(OC)c(OC)c(OC)c2)cc1O [Compound 13]', 'Differentially expressed proteins', 319),
  ('COc1ccc(/C=C(/C(=O)O)c2cc(OC)c(OC)c(OC)c2)c(F)c1O [Compound 9]', 'Differentially expressed proteins', 296),
  ('COc1ccc(/C=C(/C(=O)O)c2cc(OC)c(OC)c(OC)c2)c(O)c1O [Compound 2]', 'Differentially expressed proteins', 298),
  ('COc1ccc(/C=C(/C(=O)O)c2cc(OC)c(OC)c(OC)c2)c(OC)c1O [Compound 12]', 'Differentially expressed proteins', 322),
  ('COc1ccc(/C=C(/C(=O)O)c2cc(OC)c(OC)c(OC)c2)cc1O [Compound 6]', 'Differentially expressed proteins', 312),
  ('COc1cc(/C(=C\c2cc(O)c(OC)c(Cl)c2)C(=O)O)cc(OC)c1OC [Compound 5]', 'Differentially expressed proteins', 304),
  ('COc1cc(/C=C(/C(=O)O)c2cc(OC)c(OC)c(OC)c2)cc(OC)c1 [Compound 3]', 'Differentially expressed proteins', 318),
  ('COc1ccc(/C=C(/C(=O)O)c2cc(OC)c(OC)c(OC)c2)c(O)c1O [Compound 1]', 'Differentially expressed proteins', 323);

Exam item: Any idea what Differentially expressed proteins was measured for COc1ccc(/C=C(/C(=O)O)c2cc(OC)c(OC)c(OC)c2)cc1F [Compound 4] ?
Marked response: 307

Exam item: Give its Differentially expressed proteins value. Item: COc1cc(/C=C(/C(=O)[O-])c2cc(OC)c(OC)c(OC)c2)cc(OC)c1F.[K+] [Compound 10]
Marked response: 315

Exam item: Would you kindly share the measured Differentially expressed proteins for COc1cc(/C(=C\c2cc(O)c(OC)c(F)c2)C(=O)O)cc(OC)c1OC [Compound 8] ?
Marked response: 317
